Cited source for all entries: patent US3959272A

- Measurement Protocol: Antagonism of convulsions produced by cardiazole
- Assay type: in vivo
- Condition Parameters: Mus musculus, ip; 32 mg/kg intraperitoneally; read-out: Percentage inhibition of tonic convulsions
- Description: Groups of 6 mice received the compound under test 30 minutes before introperitoneal injection of 160 mg/kg of cardiazole. The action of the compound under test on the tonic convulsion phase was observed.
# cutoff 20% applies to inhibition in vivo at 32 mg/kg; >= gives true, < gives false

{"Compound": "O=C(OCCN1CCOCC1)c1cccnc1Nc1ccccc1 [Example 5, β-Morpholino ethyl 2-anilino nicotinate]", "Answer Label": "true"}
{"Compound": "Cc1cccc(Nc2ncccc2C(=O)OCC(C)(C)N(C)C)c1C [Example 3, 2-Dimethylamino-2-methylpropyl nixylate]", "Answer Label": "false"}
{"Compound": "Cc1cccc(Nc2ncccc2C(=O)OCCN2CCN(C)CC2)c1C [Example 4, β-(N-methylpiperazino)ethyl nixylate]", "Answer Label": "false"}
{"Compound": "Cc1cccc(Nc2ncccc2C(=O)OCCN2CCCCC2)c1C [Example 2, β-Piperidino ethyl nixylate]", "Answer Label": "true"}
{"Compound": "Cc1cccc(Nc2ncccc2C(=O)OCCN2CCOCC2)c1C [Example 1, β-Morpholino ethyl nixylate]", "Answer Label": "true"}

Attention now turns to another entry.
### Prompt Hi, just wondering whether Cc1ccc(Cl)cc1Nc1ncccc1C(=O)OCCN1CCOCC1 shows inhibition in vivo at 32 mg/kg of 20% or higher.
### Response false
